- Test system: Hepatitis C virus
- Procedure details: Antiviral activity against Hepatitis C virus infected in human Huh7.5 cells assessed as inhibition of viral replication incubated for 72 hrs by qRT-PCR analysis
- Format: functional, organism-based, Hepacivirus hominis
- Cond: Huh7.5, 72 h
Quantity measured: EC50 (µM)
Expressed in µM, but write only the number.

The following compounds have reported results that may help.
>  <Compound>
CC1CN(Cc2ccc(NC(=O)c3ccc(OCCCCl)c([N+](=O)[O-])c3)cc2C(F)(F)F)CC(C)O1 (centres undefined)

>  <Unit descriptor>
µM

>  <Obs value>
0.174

$$$$
>  <Compound>
CN1CCN(Cc2ccc(NC(=O)c3ccc(OCCCl)c([N+](=O)[O-])c3)cc2C(F)(F)F)CC1

>  <Unit descriptor>
µM

>  <Obs value>
0.044

$$$$
>  <Compound>
CCC(=O)Nc1cc(C(=O)Nc2ccc(OC)cc2)ccc1OCCCN1CCN(C)CC1

>  <Unit descriptor>
µM

>  <Obs value>
13.5

$$$$

In: State the recorded EC50 for this entry: COc1ccc(C(=O)Nc2ccc(N(C)C)cc2)cc1[N+](=O)[O-]
Out: 4.07

In: Now consider CCC(=O)Nc1cc(C(=O)Nc2ccc(CN3CCN(C)CC3)c(C(F)(F)F)c2)ccc1OC(C)C .
Out: 0.3

In: Item: CC(C)Oc1ccc(C(=O)Nc2ccc(CN3CCN(C)CC3)c(C(F)(F)F)c2)cc1[N+](=O)[O-]
Out: 0.095

In: What about CCC(=O)Nc1cc(C(=O)Nc2ccc(N(C)C)cc2)ccc1OC(C)C ?
Out: 6.03

In: Record: CN1CCN(Cc2ccc(NC(=O)c3ccc(OCCCCl)c(S(N)(=O)=O)c3)cc2C(F)(F)F)CC1
Out: 1.14

In: And then CC(C)Oc1ccc(C(=O)Nc2ccc(CN3CCN(C)CC3)c(C(F)(F)F)c2)cc1N , what is it?
Out: 1.32

In: Entry CN1CCN(Cc2ccc(NC(=O)c3ccc(OCCCCl)c([N+](=O)[O-])c3)cc2C#N)CC1 please
Out: 0.65

In: Lookup CCC(=O)Nc1cc(C(=O)Nc2ccc(OC)cc2)ccc1OC(C)C
Out: 1.1

In: Also, CC(C)Oc1ccc(C(=O)Nc2ccc(N(C)C)cc2)cc1NC(=O)C(C)Br (centres undefined) please.
Out: 4.34

In: Follow-up entry: CC(C)Oc1ccc(C(=O)Nc2ccc(CN3CCN(C)CC3)c(C(F)(F)F)c2)cc1NC(=O)C(C)Br (centres undefined)
Out: 0.32

In: Now try CN(C)C1CCN(Cc2ccc(NC(=O)c3ccc(OCCCCl)c([N+](=O)[O-])c3)cc2C(F)(F)F)CC1 .
Out: 0.38

In: Again, but for COc1ccc(NC(=O)c2ccc(OCCCN(C)C)c([N+](=O)[O-])c2)cc1
Out: 8.96
